molecules and their reported α-Amylase Inhibition (%)
- Test system: α-amylase
- assayExplanation: α-Amylase enzyme inhibition assay
- Type: biochemical
- reportedConditions: sample concentration 200 µg/mL
Please provide the amount together with its unit, number first.

Worked cases, α-Amylase Inhibition (%) given:
CC1(C)O[C@H]2CC(=O)OC[C@]23[C@H]2CC[C@@]4(C)[C@H](c5ccoc5)OC(=O)[C@H]5O[C@]54[C@]2(C)C(=O)C[C@@H]13 | 14.32 ± 0.08%
C[C@H]1O[C@H](O[C@H]2[C@H](O)[C@@H](O)[C@@H](O[C@H]3[C@H](O)[C@@H](O)C(O)O[C@@H]3CO)O[C@@H]2CO)[C@H](O)[C@@H](O)[C@@H]1N[C@H]1C=C(CO)[C@@H](O)[C@H](O)[C@H]1O (stereo partly shown) [Acarbose, acarbose, reference compound] | 66.07 ± 0.23%
CC(=O)O[C@H]1CC(=O)OC(C)(C)[C@@H]2CC(=O)[C@]3(C)[C@H](CC[C@@]4(C)[C@H](c5ccoc5)OC(=O)[C@H]5O[C@]543)[C@@]12C | 14.73 ± 0.08%

Measured α-Amylase Inhibition (%), CC1(C)OC(=O)C[C@H](O)[C@]2(C)[C@H]3CC[C@@]4(C)[C@H](c5ccoc5)OC(=O)[C@H]5O[C@]54[C@]3(C)C(=O)C[C@@H]12 : 42.74 ± 0.19%

###

Attribute: α-Amylase Inhibition (%)
- Tested on: α-amylase
- assayExplanation: α-Amylase enzyme inhibition assay
- Type: biochemical
- reportedConditions: sample concentration 100 µg/mL
Give just the number in %; leave the unit off.

Field: example entries. Status: answers known.
C[C@H]1O[C@H](O[C@H]2[C@H](O)[C@@H](O)[C@@H](O[C@H]3[C@H](O)[C@@H](O)C(O)O[C@@H]3CO)O[C@@H]2CO)[C@H](O)[C@@H](O)[C@@H]1N[C@H]1C=C(CO)[C@@H](O)[C@H](O)[C@H]1O (stereo partly drawn) [Acarbose, acarbose, reference compound] | 37.12
CC1(C)OC2CC(=O)OCC23C1CC(=O)C1(C)C3CC[C@@](C)([C@@H](O[C@@H]2O[C@H](CO)[C@@H](O)[C@H](O)[C@H]2O)c2ccoc2)C12OC2C(=O)O (stereo partly drawn) [Cpd5, limonin 17-O-β-D-glucopyranoside] | 34.17
CC(=O)O[C@H]1CC(=O)OC(C)(C)[C@@H]2CC(=O)[C@]3(C)[C@H](CC[C@@]4(C)[C@H](c5ccoc5)OC(=O)[C@H]5O[C@]543)[C@@]12C | 8.27
CC1(C)O[C@H]2CC(=O)OC[C@]23[C@H]2CC[C@@]4(C)[C@H](c5ccoc5)OC(=O)[C@H]5O[C@]54[C@]2(C)C(=O)C[C@@H]13 | 8.05
CC1(C)OC(=O)C=C[C@]2(C)[C@H]3CC[C@@](C)([C@@H](O[C@@H]4O[C@H](CO)[C@@H](O)[C@H](O)[C@H]4O)c4ccoc4)[C@@]4(O[C@@H]4C(=O)O)[C@]3(C)C(=O)C[C@@H]12 [Cpd4, obacunone 17-O-β-D-glucopyranoside] | 33.69

Next item in the queue.
Entry CC1(C)OC(=O)C[C@H](O)[C@]2(C)[C@H]3CC[C@@]4(C)[C@H](c5ccoc5)OC(=O)[C@H]5O[C@]54[C@]3(C)C(=O)C[C@@H]12 ; α-Amylase Inhibition (%) = 24.01

###

- System: α-amylase
- assayExplanation: α-Amylase enzyme inhibition assay
- Assay type: biochemical
- reportedConditions: sample concentration 50 µg/mL
Criterion: α-Amylase Inhibition (%) meeting or surpassing 10%. Met: t. Not met: f.

Use the examples below as a reference point.
CC1(C)OC(=O)C[C@H](O)[C@]2(C)[C@H]3CC[C@@]4(C)[C@H](c5ccoc5)OC(=O)[C@H]5O[C@]54[C@]3(C)C(=O)C[C@@H]12 | t
CC(=O)O[C@H]1CC(=O)OC(C)(C)[C@@H]2CC(=O)[C@]3(C)[C@H](CC[C@@]4(C)[C@H](c5ccoc5)OC(=O)[C@H]5O[C@]543)[C@@]12C | f
CC1(C)OC2CC(=O)OCC23C1CC(=O)C1(C)C3CC[C@@](C)([C@@H](O[C@@H]2O[C@H](CO)[C@@H](O)[C@H](O)[C@H]2O)c2ccoc2)C12OC2C(=O)O (stereo partly drawn) [Cpd5, limonin 17-O-β-D-glucopyranoside] | t
CC1(C)OC(=O)C=C[C@]2(C)[C@H]3CC[C@@](C)([C@@H](O[C@@H]4O[C@H](CO)[C@@H](O)[C@H](O)[C@H]4O)c4ccoc4)[C@@]4(O[C@@H]4C(=O)O)[C@]3(C)C(=O)C[C@@H]12 [Cpd4, obacunone 17-O-β-D-glucopyranoside] | t
CC1(C)O[C@H]2CC(=O)OC[C@]23[C@H]2CC[C@@]4(C)[C@H](c5ccoc5)OC(=O)[C@H]5O[C@]54[C@]2(C)C(=O)C[C@@H]13 | f

Next up:
API: above_or_equal(metric=α-Amylase Inhibition (%), cutoff=10%) for item C[C@H]1O[C@H](O[C@H]2[C@H](O)[C@@H](O)[C@@H](O[C@H]3[C@H](O)[C@@H](O)C(O)O[C@@H]3CO)O[C@@H]2CO)[C@H](O)[C@@H](O)[C@@H]1N[C@H]1C=C(CO)[C@@H](O)[C@H](O)[C@H]1O (stereo partly drawn) [Acarbose, acarbose, reference compound]
t

###

- Test system: α-glucosidase
- assayExplanation: SDS-PAGE electrophoretic α-glucosidase pattern
- Assay type: biochemical
- reportedConditions: 100 µg/mL
// Diff% (decrease in the quantity of the identified α-glucosidase band) lookup, one value per entry
Kindly format the answer as number then unit.

CC1(C)O[C@H]2CC(=O)OC[C@]23[C@H]2CC[C@@]4(C)[C@H](c5ccoc5)OC(=O)[C@H]5O[C@]54[C@]2(C)C(=O)C[C@@H]13 [Cpd1, limonin] | 3.83%
CC1(C)OC(=O)C[C@H](O)[C@]2(C)[C@H]3CC[C@@]4(C)[C@H](c5ccoc5)OC(=O)[C@H]5O[C@]54[C@]3(C)C(=O)C[C@@H]12 [Cpd2, deacetylnomilin] | 40.64%

# input for lookup
// CC(=O)O[C@H]1CC(=O)OC(C)(C)[C@@H]2CC(=O)[C@]3(C)[C@H](CC[C@@]4(C)[C@H](c5ccoc5)OC(=O)[C@H]5O[C@]543)[C@@]12C [Cpd3, nomilin] : Diff% (decrease in the quantity of the identified α-glucosidase band) value = 7.51%

Hello, the source for this data is paper PMC11401861, in case you need it.
